Parameter koff: see the listing below.
biological target: T1, human dimeric EGFR (EGFR.mFc) (human); test: SPR 37C, mAb captured by anti-human Fc, EGFR.mFc analyte
T1 construct: Soluble dimeric EGFR construct
Give just the numeric value; s⁻¹ need not be written.

binder: H1H153P (antibody, human IgG1, V domains shown, Human IgG1 Fc (H1H)) VH: QVQLVESGGGVVQPGKSLRLSCAASGFTFSIYGMNWVRQAPGKGLDWVAVISDDGSNKDYVDSVRGRFTISRDNSKNTLYLQMNSLSAEDTAVYYCAKDRITGTHYYGLDVWGQGTTVTVSS VL: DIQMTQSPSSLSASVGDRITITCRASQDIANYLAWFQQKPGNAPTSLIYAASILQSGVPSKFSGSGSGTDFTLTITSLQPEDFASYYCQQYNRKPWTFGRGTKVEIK
property: koff
reported.result: 8.23e-06

binder: H1H142P (antibody, human IgG1, V domains shown, Human IgG1 Fc (H1H)) VH: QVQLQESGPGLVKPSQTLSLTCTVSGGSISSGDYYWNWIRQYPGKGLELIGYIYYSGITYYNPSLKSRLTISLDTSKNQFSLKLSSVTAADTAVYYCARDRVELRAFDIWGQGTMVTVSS VL: DIQMTQSPSSLSASIGDRITISCQASQDINNYLNWYQQKPGKAPKLLIYDASNLETGIPSRFSGSGSGTDFTFTISGLQPEDIATYYCQHYDSLPLTFGQGTRLEIK
property: koff
reported.result: 1.2e-05

Consider the binder H1H159P (antibody, human IgG1, V domains shown, Human IgG1 Fc (H1H)) VH: EVQLVESGGGLVQPGGSLRLSCAASRFTFTNYWMSWVRQAPGKGLEWVAKIKQDGSEKYYLDSVKDRFTISRDNAKNSLYLQMNSLRAEDTAVYYCASSSSWYDYYYGMDVWGHGTTVTVSS VL: EIVLTQSPDFQSVTPKEKVTITCRASQSIGTNLHWYQQRPDQSPKLLIKFASQSFSGVPSRFSGSGSGTDFTLTINSLEAEDAATYYCHQTNFLPHTFGGGTKVEIKR and give its measured koff.
5.63e-06
